These measurements were taken from ChEMBL document CHEMBL6134796.

# Test description: Metabolic stability in human liver microsomes assessed as parent compound remaining at 1 uM preincubated for 5 mins followed by NADPH regenerating system addition and measured after 30 mins by LC-MS/MS analysis
# Format: ADME, Microsome
# Details: time 35 min, read-out: Stability
Experimental endpoint: remaining at 0.5 h, 1 µM (%)
Report the value in % with no unit label.

Item under review: O=C(CCc1c[nH]c2ccccc12)Nc1cc(C(F)(F)F)cc(C(F)(F)F)c1 . Reported remaining at 0.5 h, 1 µM?
57.3

###

# Test description: Metabolic stability in human plasma assessed as parent compound remaining at 10 uM measured after 120 mins
# Assay type: ADME, cell-free
# Details: read-out: Stability
Experimental endpoint: remaining at 2 h, 10 µM (%)
Report the value in % with no unit label.

Item under review: O=C(CCc1c[nH]c2ccccc12)Nc1cc(C(F)(F)F)cc(C(F)(F)F)c1 . Reported remaining at 2 h, 10 µM?
94.6
